Data credit: patent US20220112288A1

Target or test system: T1, Rhesus macaque CD4-HIS (Acro Biosystems, Cat. CD4-C52H7) (rhesus macaque, UniProt P16003 26-390)
T1 construct: Bought reagent; also called Rhesus CD4; rhesus CD4-HIS; not shown: His tag
T1 sequence (P16003 26-390 limits assumed): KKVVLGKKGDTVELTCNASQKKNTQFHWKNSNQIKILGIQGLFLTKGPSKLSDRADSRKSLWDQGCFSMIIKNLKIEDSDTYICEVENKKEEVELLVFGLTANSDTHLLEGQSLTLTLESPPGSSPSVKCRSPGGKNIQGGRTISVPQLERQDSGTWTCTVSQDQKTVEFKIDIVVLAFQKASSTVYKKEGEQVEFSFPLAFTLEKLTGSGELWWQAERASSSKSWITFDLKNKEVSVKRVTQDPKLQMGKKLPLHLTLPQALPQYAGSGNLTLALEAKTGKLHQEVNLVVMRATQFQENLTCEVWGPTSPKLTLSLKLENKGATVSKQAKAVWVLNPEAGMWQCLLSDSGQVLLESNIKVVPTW
Assay summary: BLI (Octet Red384); Ab on anti-mouse Fc (AMC) sensor; rhesus CD4-HIS 100/50/25 nM; global 1:1 fit;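 note: antibodies loaded at 10 µg/mL, an unrelated mouse-derived antibody served as internal reference, curves fit over association and dissociation phases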
Observation type: kon (M⁻¹ s⁻¹)
# value in M⁻¹ s⁻¹; strip the unit string

75110_14I16A (antibody, V domains shown, Tested as antibody purified from AlivaMab Mouse hybridoma supernatant (human variable domains, kappa; mouse Fc, captured on anti-mouse IgG Fc sensors); also called ADS75110 purified AMM Ab) VH: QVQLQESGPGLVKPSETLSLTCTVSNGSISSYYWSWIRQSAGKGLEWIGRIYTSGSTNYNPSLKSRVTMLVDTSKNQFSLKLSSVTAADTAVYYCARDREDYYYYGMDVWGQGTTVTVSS VL: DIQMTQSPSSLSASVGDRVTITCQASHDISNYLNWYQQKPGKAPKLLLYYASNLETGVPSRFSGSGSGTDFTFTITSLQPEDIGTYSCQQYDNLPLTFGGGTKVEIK = 190000

We now examine a further binder.
Reported kon for 75110_06G04A (antibody, V domains shown, Tested as antibody purified from AlivaMab Mouse hybridoma supernatant (human variable domains, kappa; mouse Fc, captured on anti-mouse IgG Fc sensors); also called ADS75110 purified AMM Ab) VH: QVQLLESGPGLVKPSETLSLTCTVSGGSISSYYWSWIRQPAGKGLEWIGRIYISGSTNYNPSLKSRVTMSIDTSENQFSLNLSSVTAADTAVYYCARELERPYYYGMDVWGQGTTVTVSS VL: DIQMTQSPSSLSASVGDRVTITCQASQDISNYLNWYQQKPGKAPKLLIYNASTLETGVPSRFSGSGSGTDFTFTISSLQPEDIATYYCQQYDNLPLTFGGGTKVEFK : what is it?
510000
